tested on: HT-29; assay: Inhibition of cells growth by colorimetric assay (SRB), HT-29; assay type: cell-based; settings: HT-29; SRB, 48 hours exposure
As shown below, each of these molecules has a reported HT-29 TGI value.
Write the number on its own, no unit after it.

Record excerpt, results attached:
molecule	HT-29 TGI
COc1cc2c(cc1O)CCN(C)[C@]21CS[C@@H]2c3c(OC(C)=O)c(C)c4c(c3[C@H](COC1=O)N1C2[C@H]2c3c(cc(C)c(OC)c3O)C[C@@H]([C@@H]1O)N2C)OCO4 (stereo partly drawn)	1.29E-08
COc1cc2c(cc1O)CCN[C@]21CS[C@@H]2c3c(OC(C)=O)c(C)c4c(c3[C@H](COC1=O)N1C2[C@H]2c3c(cc(C)c(OC)c3OC(C)C)C[C@@H]([C@@H]1O)N2C)OCO4 (stereo partly drawn)	2.19E-06
COc1cc2c(cc1OC(=O)Cc1cc(=O)oc3cc(N(C)C)ccc13)CCN[C@]21CS[C@@H]2c3c(OC(C)=O)c(C)c4c(c3[C@H](COC1=O)N1C2[C@H]2c3c(cc(C)c(OC)c3OC(=O)Cc3cc(=O)oc5cc(N(C)C)ccc35)C[C@@H]([C@@H]1O)N2C)OCO4 (stereo partly drawn) [Compound 77]	9.52E-09

Which HT-29 TGI reading was recorded for the molecule COc1cc2c(cc1OC)[C@@]1(CS[C@@H]3c4c(OC(C)=O)c(C)c5c(c4[C@H](COC1=O)N1C3[C@H]3c4c(cc(C)c(OC)c4OC)C[C@@H]([C@@H]1O)N3C)OCO5)NCC2 (stereo partly drawn) ?
1.12E-07

Lookup COc1cc2c(cc1OC(=O)OC(C)(C)C)CCN[C@]21CS[C@@H]2c3c(OC(=O)[C@H](C)NC(=O)OC(C)(C)C)c(C)c4c(c3[C@H](COC1=O)N1C2[C@H]2c3c(cc(C)c(OC)c3O)C[C@@H]([C@@H]1C#N)N2C)OCO4 (stereo partly drawn)
2.00E-10

Lookup C=COC(=O)Oc1c(C)c2c(c3c1[C@H]1SC[C@]4(NCCc5cc(OC(=O)OC(C)(C)C)c(OC)cc54)C(=O)OC[C@@H]3N3C1[C@H]1c4c(cc(C)c(OC)c4O)C[C@@H]([C@@H]3C#N)N1C)OCO2 (stereo partly drawn)
7.79E-09

Ref: patent US7759345B2
